Listing of recorded composite z-score by entry.
- method: binders of probe aFST on microarray, primary screen, stem cell growth factor project, biochemical, small-molecule microarray, fluorescence 635/667 (AID 1086);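 note: score merges 667 nm fluorescence with signal-to-noise of each printed compound spot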
- recorded_conditions: higher = more signal
I only need the number, thanks.

- compound: "CC(C)N1C(=O)c2ccccc2[C@@H](C(=O)NCc2ccccc2)[C@@H]1c1ccc(CO)cc1"
  readout: "composite z-score"
  numeric_result: -0.0768
- compound: "CC1CC/C=C\\[C@H]2OC34C=CCN(C(C)C)C(=O)[C@H]3N(C(CO)C(C)C)C(=O)[C@@H]4C2C(=O)O1 (some centres undefined)"
  readout: "composite z-score"
  numeric_result: -0.422
- compound: "CC(C)C[C@@H]1NC(=O)[C@H]2C[C@@H](C(=O)NCCCC[N+](C)(C)C)[C@@H](c3cccc(OCCO)c3)N2C1=O"
  readout: "composite z-score"
  numeric_result: -0.233

Read the next record carefully.
The reported value for CC(C)CCC[C@@H](C)[C@H]1CC[C@@]2(C)C3=C(CC[C@]12C)[C@@]1(C)CC[C@H](OC(=O)CCl)C(C)(C)C1CC3 (some centres undefined) in terms of composite z-score is 0.104

---

Listing of recorded z-score by entry.
- method: E. coli acrAB mutant growth effects, primary screen, E. coli filamentation inducers, strain DRC39, OD650, 24 h (AID 1178);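 note: growth measured as culture turbidity by optical density at 650 nm; test concentration not given here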
- recorded_conditions: higher = more signal, called active from +8 up or from −8 down
I only need the number, thanks.

// worked examples, z-score included
- compound: "CN(C)CCCC[C@@H]1NC(=O)[C@@H]2C[C@H](C(=O)NCCCCCNC(=O)CS)[C@H](c3cccc(OCCO)c3)N2C1=O"
  readout: "z-score"
  numeric_result: 0.431
- compound: "COC(=O)C1=CC(c2ccc(CO)cc2)=CC(C2CC2)N(C)C=C1C(=O)OC (stereo not given)"
  readout: "z-score"
  numeric_result: 0.983
- compound: "C=CCN1C(=O)[C@@]2(O[C@@H](CCO)[C@H]([Si](C)(C)c3ccc(OC)cc3)[C@H]2C)c2cc(N3C(=O)c4cccc5cccc3c45)ccc21"
  readout: "z-score"
  numeric_result: 2.57
- compound: "C=C(COC)C(=O)CC[C@H](OC(=O)c1ccccc1-c1ccccc1C(=O)O)c1ccccc1OCCO"
  readout: "z-score"
  numeric_result: 1.54
- compound: "C=CCN1C(=O)[C@@]2(O[C@@H](CCO)[C@H]([Si](C)(C)c3ccc(OC)cc3)[C@H]2C)c2cc(N(C=O)c3ccccc3)ccc21"
  readout: "z-score"
  numeric_result: 2.62

The reported value for C#CCN1C(C(=O)OCC)OC[C@H]1c1ccccc1 (stereo not given in full) in terms of z-score is 2.47

The reported value for `C=C[C@H](OC)[C@@H](OC(=O)Nc1ccc(OC)cc1)c1ccc(OC)c(O)c1` in terms of z-score is 1.89

The reported value for `O=C1c2ccccc2C(=O)c2cc([C@H]3Oc4ccccc4S(=O)(=O)N4CCC[C@@H]34)ccc21` in terms of z-score is 2.89

The reported value for `C=C(C(=O)CC[C@@H](OC(C)=O)c1ccccc1OCCO)C(C)C` in terms of z-score is 1.33

The reported value for `CO[C@H]1O[C@H](CO)[C@@H](OC(=O)Nc2ccccc2)[C@H](OC(=O)Nc2ccccc2-c2ccccc2)[C@H]1OC(=O)Nc1ccccc1-c1ccccc1` in terms of z-score is 0.218

The reported value for C=CCC(OC(C)=O)[C@@H]1[C@@H](N(Cc2cc3ccccc3o2)C(=O)c2ccc(-c3ccccc3)cc2)c2cc(OCCCO)ccc2N1C(=O)c1ccc(-c2ccccc2)cc1 (stereo not given in full) in terms of z-score is 1.47

---

- experimental_system: Torsin-1A-interacting protein 2 (Homo sapiens) (UniProt Q8NFQ8)
- Sequence (Q8NFQ8 whole entry, looked up): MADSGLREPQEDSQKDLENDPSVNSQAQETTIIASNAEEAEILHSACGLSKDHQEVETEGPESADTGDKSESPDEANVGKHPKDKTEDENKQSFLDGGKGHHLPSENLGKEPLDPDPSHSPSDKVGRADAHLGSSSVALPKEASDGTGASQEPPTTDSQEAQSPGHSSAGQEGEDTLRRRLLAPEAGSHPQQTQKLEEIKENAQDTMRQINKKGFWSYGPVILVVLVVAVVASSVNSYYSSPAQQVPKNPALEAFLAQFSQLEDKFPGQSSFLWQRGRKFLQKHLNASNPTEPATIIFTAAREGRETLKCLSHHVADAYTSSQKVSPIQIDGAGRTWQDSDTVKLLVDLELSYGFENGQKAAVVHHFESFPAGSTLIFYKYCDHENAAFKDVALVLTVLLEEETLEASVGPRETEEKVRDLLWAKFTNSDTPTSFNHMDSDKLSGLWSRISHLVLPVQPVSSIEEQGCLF
- method: LULL1 binders on small-molecule microarray, primary screen, cell lysate, human LULL1 lysate, 635/667 nm fluorescence (AID 1092);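 note: probe is lysate of COS7 cells overexpressing human LULL1; score merges per-feature 667 nm fluorescence with signal-to-noise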
- recorded_conditions: hLULL1 lysate binding, 635 nm fluorescence, higher = more signal
readout: composite z-score
I only need the number, thanks.

// worked examples, composite z-score included
- given_smiles: "COCCOC(=O)N1C(=O)[C@@]2(c3cc(C#CCNC(N)=O)ccc31)[C@H](C(=O)NC[C@H](O)c1ccccc1)[C@H]1C(=O)O[C@H](c3ccccc3)[C@H](c3ccccc3)N1[C@@H]2c1ccc(O)cc1"
  numeric_result: 1.5
- given_smiles: "CC(C)(C)OC(=O)CC[C@@]1(C(=O)N2CCOCC2)N=C(c2ccc(OCCCO)cc2)O[C@@H]1c1ccccc1"
  numeric_result: 3.95

Read the next record carefully.
The reported value for `O=C(N1CCCCC1)[C@@]1(Cc2ccccc2)N=C(c2ccc(OCCCO)cc2)O[C@H]1c1ccccc1` in terms of composite z-score is 2.99

---

- method: MM1S cell viability effects, profiling panel, calcein-AM fluorescence, 48 h, basal (AID 1165);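 note: viability of MM1S multiple myeloma cells under basal unstimulated conditions; test concentration not given here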
- recorded_conditions: higher = more signal
readout: z-score
I only need the number, thanks.

- molecule: "CC(C)CCC[C@@H](C)[C@H]1CC[C@@]2(C)C3=C(CC[C@]12C)[C@@]1(C)CC[C@H](OC(=O)CCl)C(C)(C)C1CC3 (some centres not stated)"
  z-score: 0.405
- molecule: "C=CCN1C(=O)[C@@]2(O[C@@H](CCn3cc(CCO)nn3)[C@H]([Si](C)(C)c3ccc(OC)cc3)[C@H]2C)c2cc(N3C(=O)c4cccc5cccc3c45)ccc21"
  z-score: -2.73
- molecule: "COCCCNC(=O)[C@@]1(CCS(=O)(=O)c2ccccc2)N=C(c2ccc(OCCCO)cc2)O[C@H]1c1ccccc1CN=[N+]=[N-]"
  z-score: 0.872

The reported value for `CCCCCCC#C[Si](O[C@H](c1ccccc1)c1cn(Cc2ccccc2)nn1)(C(C)C)C(C)C` in terms of z-score is 0.163

The reported value for `O=C(O)[C@H]1C[C@H]2C(=O)NCC(=O)N2[C@H]1c1cccc(OCCO)c1` in terms of z-score is -1.13

The reported value for `O=C1O[C@H](c2ccccc2)[C@H](c2ccccc2)N2[C@H]1[C@@H](C(=O)NC[C@H](O)c1ccccc1)[C@]1(C(=O)Nc3ccc(C#CC4(O)CCCCCC4)cc31)[C@H]2c1ccc(O)cc1` in terms of z-score is -0.804

The reported value for `CCCC[C@@H](O)C1=C(C)C[C@H]2C(=O)N(C)C(=O)[C@H]2[C@H]1CO` in terms of z-score is 0.0991

---

Listing of recorded composite z-score by entry.
- Test system: Noggin (protein binding on small-molecule microarray)
- method: Noggin binders on small-molecule microarray, primary screen, biochemical, 635/667 nm fluorescence (AID 1095);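 note: score merges 667 nm feature fluorescence with signal to noise over triplicate slides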
- recorded_conditions: 635 nm fluorescence, higher = more signal
I only need the number, thanks.

// worked examples, composite z-score included
- molecule: "COC(=O)[C@@]1(CCC(=O)OC(C)(C)C)COC(c2ccc(OCCCO)cc2)=N1"
  composite z-score: -1.99
- molecule: "CCOC(=O)C[C@H]1[C@H](OC(=O)c2ccc(-c3ccccc3)cc2)[C@@H](NC(=O)C2CCCCC2)c2cc(OCCCO)ccc2N1C(=O)c1ccc2ccccc2n1"
  composite z-score: 0.0692
- molecule: "C=CC[C@@H](OC(=O)Nc1ccc(SC)cc1)c1ccc(OCCO)cc1"
  composite z-score: -1.07
- molecule: "COCCOC(=O)N1C(=O)[C@@]2(c3cc(C#CC4(O)CCCCCC4)ccc31)[C@H](C(=O)NC[C@H](O)c1ccccc1)[C@H]1C(=O)O[C@H](c3ccccc3)[C@H](c3ccccc3)N1[C@@H]2c1ccccc1OCCO"
  composite z-score: 1.3
- molecule: "NCCCCCCNC(=O)[C@@H]1C[C@@H]2C(=O)N[C@@H](Cc3ccccc3)C(=O)N2[C@@H]1c1ccc(O)cc1"
  composite z-score: 0.561

The reported value for `O=C(NC1CC1)[C@@H]1c2ccccc2C(=O)N(Cc2ccccc2C(F)(F)F)[C@H]1c1ccc(CO)cc1` in terms of composite z-score is 0.458

The reported value for `O=C1c2ccccc2[C@@]2(Cc3ccccc3N(CC(F)(F)F)C2=O)[C@H](c2ccc(CO)cc2)N1Cc1ccccc1C(F)(F)F` in terms of composite z-score is -1.51

The reported value for `O=C(NCc1ccccc1)[C@@H]1c2ccccc2C(=O)N(Cc2ccccc2Cl)[C@H]1c1ccc(CO)cc1` in terms of composite z-score is 1.17

The reported value for CC(C)N1CC=CC23O[C@@H]4/C=C\CCCOC(=O)C4[C@H]2C(=O)N(CCCO)[C@@H]3C1=O (stereo not given in full) in terms of composite z-score is -1.17

The reported value for `C=C(COC)C(=O)CC[C@H](OC(=O)c1ccccc1-c1ccccc1C(=O)O)c1ccccc1OCCO` in terms of composite z-score is 0.877

The reported value for `Cc1ccc(S[C@]2(C(=O)NCCN3CCOCC3)CC(=O)N(Cc3cc(C(F)(F)F)cc(C(F)(F)F)c3)[C@@H]2c2ccc(CO)cc2)cc1` in terms of composite z-score is -0.984

The reported value for NC(=O)N1C(=O)C2C(C1=O)C1C=C(c3ccc(CO)cc3)C2C(C2CC2)N1Cc1cc2c(cc1Br)OCO2 (stereo not given) in terms of composite z-score is 0.176

The reported value for `C[N+](C)(C)CCCC[C@@H]1NC(=O)[C@H]2C[C@@H](C(=O)NCCCCCN)[C@@H](c3cccc(OCCO)c3)N2C1=O` in terms of composite z-score is 0.387

The reported value for `O=C1N(CCS(=O)(=O)c2ccccc2)Cc2ccccc2[C@@H]2OC(c3ccc(OCCCO)cc3)=N[C@]12Cc1ccccc1` in terms of composite z-score is 1.1

The reported value for `O=C(O)[C@H]1C[C@H]2C(=O)NCC(=O)N2[C@H]1c1cccc(OCCO)c1` in terms of composite z-score is 0.0133
